Target: Muscarinic acetylcholine receptor M1 (Rattus norvegicus) (UniProt P08482)
Sequence (P08482 whole entry, looked up): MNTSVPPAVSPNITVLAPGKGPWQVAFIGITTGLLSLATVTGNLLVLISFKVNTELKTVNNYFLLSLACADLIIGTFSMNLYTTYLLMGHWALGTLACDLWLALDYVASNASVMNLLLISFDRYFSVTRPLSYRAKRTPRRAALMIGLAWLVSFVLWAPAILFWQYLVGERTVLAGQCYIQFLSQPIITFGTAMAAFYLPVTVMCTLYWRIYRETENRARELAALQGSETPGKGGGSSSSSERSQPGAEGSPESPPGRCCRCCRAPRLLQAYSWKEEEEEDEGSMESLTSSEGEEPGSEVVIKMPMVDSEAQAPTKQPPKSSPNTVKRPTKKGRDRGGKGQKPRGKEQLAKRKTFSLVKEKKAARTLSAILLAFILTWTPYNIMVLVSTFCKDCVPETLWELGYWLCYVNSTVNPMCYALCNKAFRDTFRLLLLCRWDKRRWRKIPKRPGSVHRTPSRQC
Assay: antagonists of rat M1 muscarinic receptor (AID 628)
Conditions: CHO-M1 cells, Fluo-4 calcium, ACh EC80 antagonist mode; at 10 µM; active compounds read low
Out of some 64,000 compounds screened, about 2,200 (3.4%) were called active. The list comes from a sample in which actives are over-represented; it also holds close analogues and randomly drawn compounds.
Binary label based on B-score with cut-off 0.1: below gives class 1, not below gives class 0.

>>> df
                                   compound    label
0                 CN(C)Cc1c(C#N)c2ccccc2n1C  class 0
1            CCOC(=O)Cn1c(N)c(C(=O)OC)sc1=S  class 0
2  CC1CN(Cc2nc3c(c(=O)n(C)c(=O)n3C)n2Cc2cccc(Cl)c2)CC(C)O1 (stereo unspecified)  class 0
3  CCCCN(CC)C(=O)CN(C)S(=O)(=O)c1cccc2nsnc12  class 1
4  O=c1/c(=C/c2ccc(CNS(=O)(=O)c3ccccc3)o2)sc2n1CCN=2  class 1
5  O=C(Nc1cccc(F)c1)c1ccc(S(=O)(=O)N2CCCC2)cc1  class 1

====

Below is a list of entries, each paired with its recorded B-score value.
Target: Muscarinic acetylcholine receptor M1 (Rattus norvegicus) (UniProt P08482)
Assay: antagonists of rat M1 muscarinic receptor (AID 628)
Conditions: CHO-M1 cells, Fluo-4 calcium, ACh EC80 antagonist mode; at 10 µM; active compounds read low
In all, about 64,000 compounds went through this assay and about 2,200 (3.4%) were called active. For the sample, actives were picked, then their nearest neighbours and some compounds at random.

compound	target_desc	B-score
CCOC(=O)CSc1nc2sc3c(c2c(=O)[nH]1)CC(C)(C)OC3	Muscarinic acetylcholine receptor M1 (Rattus norvegicus) (UniProt P08482)	1.04
O=C(CSc1nnc2scc(-c3ccc(F)cc3)n12)NCc1ccco1	Muscarinic acetylcholine receptor M1 (Rattus norvegicus) (UniProt P08482)	-0.509
CC[C@]1(O)C[C@@H]2CN(CCc3c([nH]c4ccccc34)[C@@](C(=O)OC)(c3cc4c(cc3OC)N(C)[C@H]3[C@@](O)(C(=O)OC)[C@H](OC(C)=O)[C@]5(CC)C=CCN6CC[C@]43[C@@H]65)C2)C1	Muscarinic acetylcholine receptor M1 (Rattus norvegicus) (UniProt P08482)	-0.431
CCC(C)(NC(=O)c1ccccn1)C(=O)NC1CCCCC1 (configuration not stated)	Muscarinic acetylcholine receptor M1 (Rattus norvegicus) (UniProt P08482)	-3.41
CCC(C)(C(=O)NC1CCCC1)N(C(=O)CNC(C)=O)c1ccc(C)cc1 (configuration not stated)	Muscarinic acetylcholine receptor M1 (Rattus norvegicus) (UniProt P08482)	0.0894
CN(CC(=O)NC1CCCCC1)S(=O)(=O)c1cccc2cccnc12	Muscarinic acetylcholine receptor M1 (Rattus norvegicus) (UniProt P08482)	-0.865
CC(=NC1CCN(Cc2ccccc2)CC1)c1c(O)[nH]c(=O)[nH]c1=O	Muscarinic acetylcholine receptor M1 (Rattus norvegicus) (UniProt P08482)	-1.22
CC(=O)Nc1ccc(-c2cn3cccnc3n2)cc1	Muscarinic acetylcholine receptor M1 (Rattus norvegicus) (UniProt P08482)	-0.0342
CCc1c(C)sc(NC(=O)c2ccc(Br)o2)c1C(=O)OC	Muscarinic acetylcholine receptor M1 (Rattus norvegicus) (UniProt P08482)	-0.053
Cn1c(-c2ccc(F)cc2)cnc1SCC(=O)NCc1ccco1	Muscarinic acetylcholine receptor M1 (Rattus norvegicus) (UniProt P08482)	0.325
CCC1(C)Cc2c(sc3nc4n(c(=O)c23)CCCS4)CO1 (configuration not stated)	Muscarinic acetylcholine receptor M1 (Rattus norvegicus) (UniProt P08482)	-1.1
COc1ccccc1Cc1nc(-c2ccc(C)cc2)no1	Muscarinic acetylcholine receptor M1 (Rattus norvegicus) (UniProt P08482)	0.115
O=C(Nc1ccncc1)c1c(F)cccc1F	Muscarinic acetylcholine receptor M1 (Rattus norvegicus) (UniProt P08482)	-4.49
O=S1(=O)CC(NCc2ccccc2)C(Nc2ccc(Cl)cc2)C1 (configuration not stated)	Muscarinic acetylcholine receptor M1 (Rattus norvegicus) (UniProt P08482)	-0.75
CCCc1[nH]nc2c1C(c1c(C)nn(-c3ccccc3)c1Cl)C(C#N)=C(N)O2 (configuration not stated)	Muscarinic acetylcholine receptor M1 (Rattus norvegicus) (UniProt P08482)	-0.557
COc1ccc(-c2noc(CN(C)S(=O)(=O)c3ccc(C)cc3)n2)cc1	Muscarinic acetylcholine receptor M1 (Rattus norvegicus) (UniProt P08482)	-3.11
Cc1cc(C)cc(NC(=O)C2CCN(c3nc(C)cc(C)n3)CC2)c1	Muscarinic acetylcholine receptor M1 (Rattus norvegicus) (UniProt P08482)	0.673
Cc1ccc(-c2csc3nnc(SCC(=O)NCc4ccco4)n23)cc1	Muscarinic acetylcholine receptor M1 (Rattus norvegicus) (UniProt P08482)	-10.4
Cc1ccc(C)c(N(CC(=O)NCc2ccco2)C(=O)CCC(=O)Nc2ccccn2)c1	Muscarinic acetylcholine receptor M1 (Rattus norvegicus) (UniProt P08482)	0.211
C=CCn1c(=S)[nH]c2nc3c(cc2c1=O)COC(C)(C)C3	Muscarinic acetylcholine receptor M1 (Rattus norvegicus) (UniProt P08482)	-2.69
CC12CN(Cc3ccccc3)CC(C)(CN(Cc3ccccc3)C1)C2=NO	Muscarinic acetylcholine receptor M1 (Rattus norvegicus) (UniProt P08482)	-8.41
COc1ccc(S(=O)(=O)NC(CC(=O)NCc2ccccc2OC)c2ccco2)cc1 (configuration not stated)	Muscarinic acetylcholine receptor M1 (Rattus norvegicus) (UniProt P08482)	-0.297

====

Below is a list of entries, each paired with its recorded B-score value.
Biological target: Muscarinic acetylcholine receptor M1 (Rattus norvegicus) (UniProt P08482)
Experiment: antagonists of rat M1 muscarinic receptor (AID 628)
Conditions: CHO-M1 cells, Fluo-4 calcium, ACh EC80 antagonist mode; at 10 µM; active compounds read low
Hit rate of the full screen: of about 64,000 compounds, about 2,200 (3.4%) were called active. The full list was thinned out, with actives kept by preference.
quantity_kind: B-score

>>> df
                                   compound  test_value
0  CCOC(=O)N1CCN(CC(=O)Nc2cc(C)nn2-c2nc3ccccc3s2)CC1       -2.41
1    COC(=O)Cc1cc(=O)n(-c2nc3ccccc3s2)[nH]1       0.181
2  CCOC(=O)N1CCC(NC(=O)c2ccc3nc(N4CCOCC4)sc3c2)CC1      0.0825
3  O=S(=O)(c1ccc2ccccc2c1)N1CCN(S(=O)(=O)N2CCOCC2)CC1        1.15
4  Cc1nc2ncnn2c(C)c1CCC(=O)N1CCN(C(=O)c2ccco2)CC1      -0.557
5  Cn1c(=O)cc(OCCCC(=O)N2CCN(c3ccccn3)CC2)c2ccccc21      -0.727
6  CC(=O)Nc1ccc(NC(=O)CN2CCCC(C)C2)c(Cl)c1 (stereo not given)       -1.15
7  COc1ccc(-c2c(C)nn3c(N4CCC(C(=O)N5CCCCC5)CC4)cc(C)nc23)cc1OC      -0.265
8  Cc1ccc(OCC(O)CN2CCN(CC(O)COc3ccc(C)cc3Cl)CC2)c(Cl)c1 (stereo not given)       0.987
9  CCC(=O)c1ccc(OCC(O)CN2CCN(c3cccc(C(F)(F)F)c3)CC2)cc1 (stereo not given)       -3.03

====

Target: Muscarinic acetylcholine receptor M1 (Rattus norvegicus)
Test: antagonists of rat M1 muscarinic receptor (AID 628)
Conditions: CHO-M1 cells, Fluo-4 calcium, ACh EC80 antagonist mode; at 10 µM; active compounds read low
The campaign covered roughly 64,000 compounds. About 2,200 (3.4%) were called active. Only a selection was taken, and actives are over-represented in it overall.
quantity_kind: B-score

In [3]: df
Out[3]:
                                   compound  quantity_kind  test_value
0  CC(=O)OC(C)C[N+](C)(C)C (stereo unspecified)        B-score       -11.2
1  CC(C[N+](C)(C)C)OC(N)=O (stereo unspecified)        B-score         -15
2  CC(C)C1C2=C(CC(C)(C)CC2=O)ON1c1ccccc1 (stereo unspecified)        B-score      -0.269
3  CCS(=O)(=O)N1CCC(C(=O)N2CCN(c3ccccc3)CC2)CC1        B-score       -0.14
4  Cn1c(=O)c2c(nc(Br)n2CCSc2nc3ccccc3o2)n(C)c1=O        B-score       0.536
5  CCCCC(CCC(=O)Nc1ccc(C(=O)OCC)cc1)C(=O)O (stereo unspecified)        B-score       0.867
